Reported pIC50 values for the following compounds.
system.under.test: A3R (Homo sapiens, UniProt P0DMS8)
Sequence (P0DMS8 whole entry): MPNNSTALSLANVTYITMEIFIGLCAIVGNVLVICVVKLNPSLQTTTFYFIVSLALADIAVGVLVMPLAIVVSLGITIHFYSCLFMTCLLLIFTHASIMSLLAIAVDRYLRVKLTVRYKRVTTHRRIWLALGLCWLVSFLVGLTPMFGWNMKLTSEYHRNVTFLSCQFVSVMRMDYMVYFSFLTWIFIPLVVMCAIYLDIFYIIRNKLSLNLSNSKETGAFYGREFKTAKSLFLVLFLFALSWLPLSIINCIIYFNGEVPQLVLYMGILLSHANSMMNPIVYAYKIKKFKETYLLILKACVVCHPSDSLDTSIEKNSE
assay.summary: Activity assay of adenosine receptor modulators, A3R cAMP (Table 1)
Description: Compounds (e.g., adenosine receptor modulators) were tested for its biological activity. The assay results in Table 1 indicate (+ means >1 μM; ++ means 100 nM to 1 μM; +++ means <100 nM).
pIC50: −log10 of the molar value.

Example entries and their recorded answers appear below.
[[record]]
compound_structure = "Cc1nc2nc(N[C@@H](C)c3cncc(F)c3)nc(C(=O)N3CC(NC(=O)c4ccccc4F)C3)c2s1"
measurement_name = "pIC50"
result = "6.00 to 7.00"

[[record]]
compound_structure = "Cc1nc2nc(N[C@@H](C)c3cncc(F)c3)nc(C(=O)N3CC(NC(=O)C4CCC4)C3)c2s1"
measurement_name = "pIC50"
result = "> 7.00"

[[record]]
compound_structure = "Cc1nc2nc(N[C@@H](C)c3cncc(F)c3)nc(C(=O)N3CC(NC(=O)NC(C)(C)C)C3)c2s1"
measurement_name = "pIC50"
result = "6.00 to 7.00"

[[record]]
compound_structure = "Cc1nc2nc(N[C@@H](C)c3cccnc3)nc(C(=O)N3CC(NC(=O)NC4CCCC4)C3)c2s1"
measurement_name = "pIC50"
result = "6.00 to 7.00"

[[record]]
compound_structure = "COc1cccc(C(=O)NC2CN(C(=O)c3nc(N[C@@H](C)c4cncc(F)c4)nc4nc(C)sc34)C2)c1"
measurement_name = "pIC50"
result = "6.00 to 7.00"


(Q) Give its pIC50 value. Item: Cc1nc2nc(N[C@@H](C)c3cncc(F)c3)nc(C(=O)N3CC[C@@H](O)C3)c2s1
(A) < 6.00

(Q) Can you share its pIC50? I mean this compound: Cc1nc2nc(N[C@@H](C)c3cccnc3)nc(C(=O)N3CC(NC(=O)c4ccccc4)C3)c2s1
(A) 6.00 to 7.00

---

pIC50: −log10 of the molar value.
Observed pIC50, system Adenosine A2A Receptor (Homo sapiens, UniProt P29274).

The cases that follow already have their pIC50 on record.
[[record]]
compound = "CC(=O)N[C@@H]1CCN(C(=O)c2nc(N[C@@H](C)c3cncc(F)c3)nc3nc(C)sc23)C1 [Example 30]"
measurement_name = "pIC50"
result = "< 6.00"

[[record]]
compound = "Cc1nc2nc(N[C@@H](C)c3cncc(F)c3)nc(C(=O)NCCC3CCN(C(=O)OC(C)(C)C)CC3)c2s1 [Example 22]"
measurement_name = "pIC50"
result = "< 6.00"


(Q) Item: Cc1nc2nc(N[C@@H](C)c3cncc(F)c3)nc(C(=O)N3CC(NC(=O)c4ccccc4)C3)c2s1 [Example 58] Test system: Adenosine A2A Receptor (Homo sapiens, UniProt P29274) Read-out: pIC50 Value: ?
(A) > 7.00

(Q) Which measured pIC50 belongs to Cc1nc2nc(N[C@@H](C)c3ccccn3)nc(C(=O)N3CC[C@H](O)C3)c2s1 [Example 17] , tested on Adenosine A2A Receptor (Homo sapiens, UniProt P29274)?
(A) < 6.00

---

system.under.test: A3R (Homo sapiens)
assay.summary: Activity assay of adenosine receptor modulators, A3R cAMP (Table 1)
pIC50: −log10 of the molar value.
The following compounds are listed with their measured pIC50 values.

Example entries and their recorded answers appear below.
[[record]]
compound_structure = "Cc1nc2nc(N[C@@H](C)c3cccnc3)nc(C(=O)N3CC(NC(=O)c4ccoc4)C3)c2s1"
measurement_name = "pIC50"
result = "< 6.00"

[[record]]
compound_structure = "Cc1nc2nc(N[C@@H](C)c3cncc(F)c3)nc(C(=O)N3CC(NC(=O)C45CCC(CC4)CC5)C3)c2s1"
measurement_name = "pIC50"
result = "> 7.00"

[[record]]
compound_structure = "Cc1nc2nc(N[C@@H](C)c3cncc(F)c3)nc(C(=O)N3CC(NC(=O)C4CC(F)(F)C4)C3)c2s1"
measurement_name = "pIC50"
result = "6.00 to 7.00"


Shifting focus to the compound that follows.
(Q) Write down the reported pIC50 of Cc1nc2nc(N[C@@H](C)c3cncc(F)c3)nc(C(=O)N3CC(NC(=O)C4CCCCC4)C3)c2s1 , test system: A3R (Homo sapiens).
(A) > 7.00
